assay-system: T1, full-length Ste2p S95Y (Saccharomyces cerevisiae, UniProt D6VTK4 1-431, S95Y)
T1 sequence (looked up): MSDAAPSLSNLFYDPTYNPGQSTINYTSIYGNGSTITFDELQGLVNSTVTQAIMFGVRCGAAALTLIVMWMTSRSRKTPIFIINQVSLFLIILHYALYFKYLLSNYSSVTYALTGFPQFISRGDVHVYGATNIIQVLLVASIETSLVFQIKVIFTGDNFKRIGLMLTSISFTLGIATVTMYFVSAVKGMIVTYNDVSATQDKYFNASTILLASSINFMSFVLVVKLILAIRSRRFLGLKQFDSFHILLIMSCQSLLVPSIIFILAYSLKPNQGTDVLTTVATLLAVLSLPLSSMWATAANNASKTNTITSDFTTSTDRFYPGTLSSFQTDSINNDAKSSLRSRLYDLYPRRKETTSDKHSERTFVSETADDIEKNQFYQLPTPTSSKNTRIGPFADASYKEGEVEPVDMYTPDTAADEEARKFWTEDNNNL
protocol: flow cytometry on cells
property-name: pKd
Units for pKd: none; it is -log10 of a concentration expressed in mol/L.

In one line, give reported pKd of the entry WHWLQLKPGQPMY (NBD (7-nitrobenz-2-oxa-1,3-diazol-4-yl) conjugated to the lysine at position 7; norleucine at position 12 in place of methionine) [[K^7(NBD),Nle^12] α-factor] .
8.68
